# credit: ChEMBL document CHEMBL1158548

- assay_overview: Partition coefficient, log D by HPLC
- Assay type: physicochemical
- assay_setup: octanol/water
observation_type: logD

COCCNC(=O)c1cc2c(nc(C)n2C)c2c1CC[C@@H](c1ccccc1C)O2: 2.8
Cc1ccccc1[C@@H]1CCc2c(C(=O)N3CC(O)C3)cc3c(nc(C)n3C)c2O1: 2.4
Cc1nc2c3c(c(C(=O)N(C)C)cc2n1C)CC[C@@H](c1ccc(Cl)cc1Cl)O3: 3.3
Cc1ccccc1[C@@H]1CCc2c(C(=O)NC(C)C)cc3c(nc(C)n3C)c2O1: 3.1
Cc1ccccc1[C@@H]1CCc2c(C(=O)N3CC(C)(O)C3)cc3c(nc(C)n3C)c2O1: 2.5
Cc1cc(F)ccc1[C@@H]1CCc2c(C(=O)N(C)C)cc3c(nc(C)n3C)c2O1: 2.9
COC1CN(C(=O)c2cc3c(nc(C)n3C)c3c2CC[C@@H](c2ccccc2C)O3)C1: 2.9
CCc1ccccc1[C@@H]1CCc2c(C(=O)N(C)C)cc3c(nc(C)n3C)c2O1: 3
Cc1nc2c3c(c(C(=O)N(C)C)cc2n1C)CC[C@@H](c1ccc2ccccc2c1)O3: 3.2
Cc1ccccc1[C@@H]1CCc2c(C(=O)N3CCC3)cc3c(nc(C)n3C)c2O1: 2.8
CSCCNC(=O)c1cc2c(nc(C)n2C)c2c1CC[C@@H](c1ccccc1C)O2: 3.2
Cc1ccccc1[C@@H]1CCc2c(C(=O)N(C)C)cc3c(nc(CO)n3C)c2O1: 2.5
Cc1cc(Cl)ccc1[C@@H]1CCc2c(C(=O)N(C)C)cc3c(nc(C)n3C)c2O1: 3.2
CON(C)C(=O)c1cc2c(nc(C)n2C)c2c1CC[C@@H](c1ccccc1C)O2: 2.9
CC(=O)CNC(=O)c1cc2c(nc(C)n2C)c2c1CC[C@@H](c1ccccc1C)O2: 2.8
Cc1ccccc1[C@@H]1CCc2c(C(=O)NCC#N)cc3c(nc(C)n3C)c2O1: 2.9
COCc1nc2c3c(c(C(=O)N(C)C)cc2n1C)CC[C@@H](c1ccccc1C)O3: 2.9
CCOC1CN(C(=O)c2cc3c(nc(C)n3C)c3c2CC[C@@H](c2ccccc2C)O3)C1: 3
CNC(=O)c1cc2c(nc(C)n2C)c2c1CC[C@@H](c1ccc(Cl)cc1)O2: 2.9
COC1CN(C(=O)c2cc3c(nc(C)n3C)c3c2CC[C@@H](c2ccc(Cl)cc2C)O3)C1: 3.2
